- measurement-protocol: qHTS assay to identify small molecule phospholipidosis (PLD) inducers (AID 1259344); also: % is scaled to controls: 0 for no effect and ±100 for the full control effect
- test-settings: HepG2 phospholipidosis, LipidTOX Red imaging, 24 h; series mostly up to 38.3 µM
Records with an inconclusive call do not appear. Active and inactive are the calls of the source. Calls follow the shape of the dose curve; as a rule, active = well fitted activation curve with a large enough effect; inconclusive = small, poorly fitted or top-dose-only effect; inactive = flat fitted curve, though single readings scatter.
reported-endpoint: PLD induction

Sample records with PLD induction:
[[record]]
molecule = "COc1ccccc1OC(=O)Oc1ccccc1OC"
reported_value = "inactive"

[[record]]
molecule = "CCN(CC)CCNC(C(=O)OCCC(C)C)c1ccccc1 (stereo unspecified)"
reported_value = "inactive"

[[record]]
molecule = "N=C(N=C(N)N)N1CCOCC1"
reported_value = "inactive"

[[record]]
molecule = "CCN(CCO)CCCC(C)Nc1ccnc2cc(Cl)ccc12 (stereo unspecified)"
reported_value = "inactive"

[[record]]
molecule = "O=C(NN1CCCC1)NS(=O)(=O)c1ccc(Cl)cc1"
reported_value = "14% [at 7.66 µM] (inactive)"

[[record]]
molecule = "O=C(O)Cn1c(C(=O)Nc2nc(-c3ccccc3Cl)cs2)cc2ccccc21"
reported_value = "inactive"

[[record]]
molecule = "O=C(O)[C@@H]1[C@H]2C[C@H]3c4[nH]c5ccccc5c4CCN3C[C@@H]2CC[C@@H]1O"
reported_value = "inactive"

[[record]]
molecule = "CC(=O)O[C@@H]1C(=O)O[C@@H]2[C@H]1OC(=O)[C@@H]2OC(C)=O"
reported_value = "0.969% [at 7.66 µM] (inactive)"


[Q] Fill in reported PLD induction for this entry: `CNS(=O)(=O)Cc1ccc2[nH]cc(CCN(C)C)c2c1`
[A] inactive

[Q] Fill in reported PLD induction for this entry: Cn1c(=O)c2c(ncn2CC(O)CO)n(C)c1=O (stereo unspecified)
[A] inactive

[Q] Fill in reported PLD induction for this entry: `C=CC[N+]1([C@H]2C[C@H]3[C@@H]4CC[C@H]5C[C@H](OC(C)=O)[C@@H](N6CCCCC6)C[C@]5(C)[C@H]4CC[C@]3(C)[C@H]2OC(=O)CC)CCCCC1`
[A] -0.411% [at 7.66 µM] (inactive)

---

- measurement-protocol: A CellTox Green Cytotoxicity Assay to monitor cytotoxicity in HEK293 cells - 40 hour (AID 1224871); also: % is scaled to controls: 0 for no effect and ±100 for the full control effect; nearly all actives have a fitted effect of over 45% in size
- test-settings: CellTox Green fluorescence; series mostly up to 76.8 µM
Inconclusive results are not listed. Calls of active or inactive are those of the source. The call rests on the fitted dose curve; in most records, active means well fitted activation curve with a large enough effect in the repeat runs; inconclusive means weak or mixed curves; inactive means flat fitted curve, though single readings scatter.
Give one outcome, nothing more. List: 1 = active, 0 = inactive

[Q] Short answer needed: outcome of this test for `Cn1c(NCCN(CCO)CCCc2ccc([N+](=O)[O-])cc2)cc(=O)n(C)c1=O` ?
[A] 0

[Q] Short answer needed: outcome of this test for `CC(C)(C)c1cc(CO)cc(C(C)(C)C)c1O` ?
[A] 0

---

- measurement-protocol: qHTS assay to identify small molecule antagonists of the thyroid receptor (TR) signaling pathway - cell viability counter screen (AID 743064); also: % is scaled to controls: 0 for no effect and ±100 for the full control effect; nearly all actives have a fitted effect of over 50% in size
- test-settings: GH3.TRE-Luc viability, CellTiter-Fluor, 24 h; series mostly up to 70.3 µM
Inconclusive results are not listed. Activity calls are given as the source filed them. Calls come from the whole dose curve; as a rule, active = well fitted cell-killing curve with a large enough effect in the repeat runs; inconclusive = weak or mixed curves, or effect the other way; inactive = no such curve, though single readings can be large or run the other way.
reported-endpoint: Potency

Sample records with Potency:
[[record]]
molecule = "C=C(C)C(=O)OCCN(C)C"
reported_value = "inactive"

[[record]]
molecule = "O=S1(=O)c2cccc3cccc(c23)N1CCCN1CCN(c2ccc(F)cc2)CC1"
reported_value = "inactive"

[[record]]
molecule = "CC(C)(C)C(=O)OCOP(=O)(COCCn1cnc2c(N)ncnc21)OCOC(=O)C(C)(C)C"
reported_value = "inactive"

[[record]]
molecule = "Nc1nc(N)c2nc(CNc3ccc(C(=O)N[C@@H](CCC(=O)O)C(=O)O)cc3)cnc2n1"
reported_value = "inactive"

[[record]]
molecule = "O=C=NC1CCC(CC2CCC(N=C=O)CC2)CC1 (stereo not drawn)"
reported_value = "inactive"


[Q] Fill in reported Potency for this entry: `CCCCC(CC)(CO)CO`
[A] inactive

[Q] Fill in reported Potency for this entry: `Cc1ccc(C(C)c2ccc(C)c(C)c2)cc1C`
[A] inactive

[Q] Fill in reported Potency for this entry: CCCCCC(CO)CCC (stereo not drawn)
[A] inactive

---

- measurement-protocol: qHTS assay to identify small molecule agonists of the endoplasmic reticulum stress response signaling pathway - cell viability counter screen (AID 1159517);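 also: HeLa cells carrying an ER stress response element beta-lactamase reporter; % is scaled to controls: 0 for no effect and ±100 for the full control effect; nearly all actives have a fitted effect of over 50% in size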
- test-settings: ESRE-bla HeLa viability, CellTiter-Glo luminescence, 5 h; series mostly up to 61 µM
Results filed as inconclusive are left out. Active and inactive are the calls of the source. Calls follow the shape of the full dose curve.
reported-endpoint: activity change, negative = cytotoxicity

Sample records with activity change, negative = cytotoxicity:
[[record]]
compound = "CC(C)(C)c1ccc(OCC2CO2)cc1 (stereo unspecified)"
reported_value = "inactive"

[[record]]
compound = "Nc1nc(CC(=O)O)cs1"
reported_value = "inactive"

[[record]]
compound = "CCCCCC/C=C/C=O"
reported_value = "inactive"

[[record]]
compound = "CN1CCC(OC(c2ccccc2)c2ccccc2)CC1"
reported_value = "inactive"


[Q] Fill in reported activity change, negative = cytotoxicity for this entry: C=CC(C)(CCC=C(C)C)OC(=O)c1ccccc1 (stereo unspecified)
[A] inactive

[Q] Fill in reported activity change, negative = cytotoxicity for this entry: `C[Si](C)O[Si](C)(C)O[Si](C)(C)O[Si](C)C`
[A] inactive

[Q] Fill in reported activity change, negative = cytotoxicity for this entry: `Cn1c(N)nc2nc[nH]c2c1=O`
[A] inactive

---

- measurement-protocol: qHTS assay to identify small molecule agonists of the estrogen related receptor (ERR) signaling pathway from Tox21 library (AID 1224849); also: % is scaled to controls: 0 for no effect and ±100 for the full control effect; nearly all actives have a fitted effect of over 15% in size
- test-settings: ERR reporter cell line, ONE-Glo luciferase, 18 h; at 92.4 µM (top of the series) unless noted
Active and inactive are the calls of the source. Calls come from the whole dose curve.
reported-endpoint: activity change, positive = activation

Sample records with activity change, positive = activation:
[[record]]
compound = "Oc1ccc(O)c2c(O)cccc12"
reported_endpoint = "activity change, positive = activation"
reported_value = "1.72% (inactive)"

[[record]]
compound = "OC(CCN1CCCCC1)(c1ccccc1)C1CCCCC1 (centres undefined)"
reported_endpoint = "activity change, positive = activation"
reported_value = "2.3% [at 42.5 µM] (inactive)"

[[record]]
compound = "COc1ccc([C@@H]2Sc3ccccc3N(CCN(C)C)C(=O)[C@@H]2OC(C)=O)cc1"
reported_endpoint = "activity change, positive = activation"
reported_value = "-33.7% [at 42.5 µM] (inactive)"


Turning to the following compound.
[Q] Fill in reported activity change, positive = activation for this entry: `Nc1nc(N)c2nc(CNc3ccc(C(=O)N[C@@H](CCC(=O)O)C(=O)O)cc3)cnc2n1`
[A] -62.3% (inactive)

---

- Test system: thyroid hormone receptor (rat, GH3 cells)
- measurement-protocol: qHTS assay to identify small molecule agonists of the thyroid receptor (TR) signaling pathway (AID 743066)
- test-settings: GH3.TRE-Luc cells, TR agonist luciferase, 24 h; series mostly up to 83.9 µM
Results filed as inconclusive are left out. The source made the active and inactive calls. The call rests on the fitted dose curve.
Give one outcome, nothing more. List: TRUE = active, FALSE = inactive

[[record]]
compound = "O=c1[nH]cnc2ccccc12"
group_label = "FALSE"

[[record]]
compound = "C1CCC2OC2C1 (stereo not given)"
group_label = "FALSE"

[[record]]
compound = "Cc1cc(NC(=O)C(=O)O)cc(C)c1Oc1ccc(O)c2c1CCC2"
group_label = "TRUE"

[[record]]
compound = "CC(=O)SCc1ccco1"
group_label = "FALSE"

[[record]]
compound = "NCCCOCCOCCOCCCN"
group_label = "FALSE"


[Q] Short answer needed: outcome of this test for CCCCC(CC)COCCCN (stereo not given) ?
[A] FALSE

[Q] Short answer needed: outcome of this test for `O=C(O)COC(=O)Cc1ccccc1Nc1c(Cl)cccc1Cl` ?
[A] FALSE

[Q] Short answer needed: outcome of this test for `CC(C)(C)c1cc(CCC(=O)OCC(COC(=O)CCc2cc(C(C)(C)C)c(O)c(C(C)(C)C)c2)(COC(=O)CCc2cc(C(C)(C)C)c(O)c(C(C)(C)C)c2)COC(=O)CCc2cc(C(C)(C)C)c(O)c(C(C)(C)C)c2)cc(C(C)(C)C)c1O` ?
[A] FALSE

---

- assayed-system: Cytochrome P450 3A4 (Homo sapiens) (UniProt P08684)
- Sequence (P08684 whole entry, looked up): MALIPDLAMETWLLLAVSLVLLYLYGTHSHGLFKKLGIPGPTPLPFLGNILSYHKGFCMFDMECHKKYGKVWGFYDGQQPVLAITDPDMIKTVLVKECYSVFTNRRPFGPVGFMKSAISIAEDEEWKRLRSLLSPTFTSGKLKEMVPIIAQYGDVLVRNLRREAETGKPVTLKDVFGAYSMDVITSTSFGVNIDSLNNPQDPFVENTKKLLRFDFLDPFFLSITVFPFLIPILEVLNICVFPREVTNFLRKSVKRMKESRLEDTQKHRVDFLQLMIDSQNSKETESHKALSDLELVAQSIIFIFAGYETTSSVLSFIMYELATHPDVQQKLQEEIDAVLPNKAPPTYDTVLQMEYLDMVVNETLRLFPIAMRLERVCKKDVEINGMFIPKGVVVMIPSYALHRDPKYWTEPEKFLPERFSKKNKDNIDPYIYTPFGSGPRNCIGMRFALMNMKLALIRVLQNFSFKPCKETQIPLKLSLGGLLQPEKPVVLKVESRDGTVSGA
- measurement-protocol: Cytochrome P450 Family 3 Subfamily A Member 4 (CYP3A4) small molecule antagonists: luciferase reporter qHTS assay (AID 1671201); also: nearly all actives have a fitted effect of over 50% in size
- test-settings: P450-Glo CYP3A4 enzyme, luciferin luminescence, 1 h; series mostly up to 115 µM
- Excerpt: National Center for Advancing Translational Sciences [NCATS] U.S. Environmental Protection Agency [EPA] National Institutes of Environmental Health Sciences [NIEHS] National Toxicology Program [NTP] U.S. Food and Drug Administration [FDA] Cytochrome P450 (CYP) enzymes are membrane-bound hemeproteins that play a key role in metabolism of drugs and xenobiotics. […] The luciferin products formed are detected with a luciferin detection reagent, and the amount of light produced is proportional to CYP activity. […]
Results filed as inconclusive are left out. Active and inactive are the calls of the source. Calls come from the whole dose curve; as a rule, active = well fitted inhibition curve with a large enough effect in the repeat runs; inconclusive = weak or mixed curves; inactive = no such curve, though single readings can be large or run the other way.
Give one outcome, nothing more. List: active, inactive

[[record]]
molecule = "CCOC(=O)CC(=O)c1cc(F)c(Cl)nc1Cl"
group_label = "inactive"


[Q] Short answer needed: outcome of this test for CCN(CC)C(C)CN1c2ccccc2Sc2ccccc21 (centres undefined) ?
[A] inactive

[Q] Short answer needed: outcome of this test for `CC(=O)CC(=O)c1ccccc1` ?
[A] active

[Q] Short answer needed: outcome of this test for `Oc1ccc2c(c1)OCO2` ?
[A] active

[Q] Short answer needed: outcome of this test for `CCCCCCCC/C=C\CCCCCCCC(N)=O` ?
[A] inactive

[Q] Short answer needed: outcome of this test for `Cc1cc(NC(=O)C(=O)O)cc(C)c1Oc1ccc(O)c2c1CCC2` ?
[A] inactive

[Q] Short answer needed: outcome of this test for `Cc1ncsc1CCO` ?
[A] inactive

[Q] Short answer needed: outcome of this test for OCCC1CCCCN1 (centres undefined) ?
[A] inactive

[Q] Short answer needed: outcome of this test for CC(C)CCCC(C)CCO (centres undefined) ?
[A] inactive

[Q] Short answer needed: outcome of this test for NC1CCN(c2nc3c(cc2F)c(=O)c(C(=O)O)cn3-c2ccc(F)cc2F)C1 (centres undefined) ?
[A] inactive

[Q] Short answer needed: outcome of this test for `C=C(C)C(=O)OC(C)C` ?
[A] inactive

[Q] Short answer needed: outcome of this test for `O=C(O)Cn1c(C(=O)Nc2nc(-c3ccccc3Cl)cs2)cc2ccccc21` ?
[A] inactive

[Q] Short answer needed: outcome of this test for `O=C(NN1CCCC1)NS(=O)(=O)c1ccc(Cl)cc1` ?
[A] inactive

[Q] Short answer needed: outcome of this test for OCC1CC2CC1C1CCC(CO)C21 (centres undefined) ?
[A] inactive

Hey, just so you know, these numbers are from PubChem BioAssay (Tox21).
